- SYSTEM_NAME: BTK (Homo sapiens)
- Sequence (Q06187 whole entry): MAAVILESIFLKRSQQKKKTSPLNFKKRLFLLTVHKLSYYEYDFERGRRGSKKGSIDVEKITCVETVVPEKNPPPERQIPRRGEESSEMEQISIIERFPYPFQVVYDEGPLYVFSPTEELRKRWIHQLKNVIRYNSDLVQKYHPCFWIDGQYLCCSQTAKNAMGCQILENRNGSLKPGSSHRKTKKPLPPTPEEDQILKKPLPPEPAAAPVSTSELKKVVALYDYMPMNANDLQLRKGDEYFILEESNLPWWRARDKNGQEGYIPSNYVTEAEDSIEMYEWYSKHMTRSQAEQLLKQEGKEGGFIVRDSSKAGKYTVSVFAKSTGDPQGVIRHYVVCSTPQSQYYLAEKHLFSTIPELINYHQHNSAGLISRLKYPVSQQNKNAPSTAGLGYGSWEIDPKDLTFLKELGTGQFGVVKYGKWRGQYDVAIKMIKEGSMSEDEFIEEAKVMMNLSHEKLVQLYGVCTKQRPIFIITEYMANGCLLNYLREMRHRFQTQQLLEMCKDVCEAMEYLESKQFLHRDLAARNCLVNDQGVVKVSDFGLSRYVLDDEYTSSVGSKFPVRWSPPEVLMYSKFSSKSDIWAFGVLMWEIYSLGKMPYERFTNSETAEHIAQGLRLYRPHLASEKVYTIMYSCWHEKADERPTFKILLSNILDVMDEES
- ASSAY_METHOD_TEXT: Assay to determine BTK inactivation rate (active site probe ELISA, human whole blood)
- Type: cell-based
- Design: tissue StemExpress; host or cells: human whole blood
- CONDITION_DESCRIPTION: 37° C., 5-60 minutes, read-out: BTK hWB (Kinact/Ki)
PARAMETER: kinact/KI

> print(dat)
                                   molecule         system.name         measured
1  CC#CC(=O)N[C@H]1CCC[C@@H](c2c(F)c(F)c(C(N)=O)c3[nH]c(C)c(Cl)c23)C1  BTK (Homo sapiens)   < 8330 M⁻¹ s⁻¹
2  CC#CC(=O)N[C@H]1CCC[C@@H](c2c(F)c(F)c(C(N)=O)c3[nH]c(C)c(C#N)c23)C1  BTK (Homo sapiens)   < 8330 M⁻¹ s⁻¹
3  CC#CC(=O)N[C@@H]1CC[C@@H](c2c(F)cc(C(N)=O)c3[nH]c(C)c(C)c23)C1  BTK (Homo sapiens)   < 8330 M⁻¹ s⁻¹
4  CC#CC(=O)N[C@@H]1C=C(c2c(F)cc(C(N)=O)c3[nH]c(C)c(C)c23)CCC1 [3B(S)]  BTK (Homo sapiens)  > 16700 M⁻¹ s⁻¹

# molecule CC#CC(=O)N[C@H]1CCC=C(c2c(F)cc(C(N)=O)c3[nH]c(C)c(C)c23)C1 [3A(S)] ; its kinact/KI = > 16700 M⁻¹ s⁻¹

Lab book: kinact/KI of CC#CC(=O)N[C@H]1CCC[C@H](c2c(F)cc(C(N)=O)c3[nH]c(C)c(Cl)c23)C1 noted as 8330 to 16700 M⁻¹ s⁻¹

The value of kinact/KI measured for the molecule CC#CC(=O)N[C@@H]1C=C(c2c(F)cc(C(N)=O)c3[nH]c(C)c(Cl)c23)CCC1 [5B(S)] turned out to be < 8330 M⁻¹ s⁻¹

Noted for CC#CC(=O)N[C@@H]1CCC[C@H](c2c(F)cc(C(N)=O)c3[nH]c(C)c(Cl)c23)C1 (relative stereo) [Compound 6-(cis)] : its kinact/KI reads < 8330 M⁻¹ s⁻¹

// recorded kinact/KI for CC#CC(=O)N[C@H]1CCC[C@@H](c2c(F)cc(C(N)=O)c3[nH]c(C)c(Cl)c23)C1 : < 8330 M⁻¹ s⁻¹

Record CC#CC(=O)N[C@H]1CCC[C@H](c2c(F)cc(C(N)=O)c3[nH]c(C)c(C)c23)C1 . Reported kinact/KI: < 8330 M⁻¹ s⁻¹

Short answer for CC#CC(=O)N[C@H]1CCC=C(c2c(F)c(F)c(C(N)=O)c3[nH]c(C)c(Cl)c23)C1 [2A(S)] : kinact/KI was > 16700 M⁻¹ s⁻¹

CC#CC(=O)N[C@H]1CC[C@@H](c2c(F)cc(C(N)=O)c3[nH]c(C)c(C)c23)C1 has a reported kinact/KI of < 8330 M⁻¹ s⁻¹

Looking up CC#CC(=O)N[C@H]1CCC=C(c2c(F)cc(C(N)=O)c3[nH]c(C)c(Cl)c23)C1 [1A(S)] , I found its kinact/KI recorded as < 8330 M⁻¹ s⁻¹

Item: CC#CC(=O)N[C@@H]1CCC[C@@H](c2c(F)c(F)c(C(N)=O)c3[nH]c(C)c(C#N)c23)C1 | kinact/KI: 8330 to 16700 M⁻¹ s⁻¹

Entry under test: CC#CC(=O)N[C@@H]1CCC=C(c2c(F)c(F)c(C(N)=O)c3[nH]c(C)c(Cl)c23)C1 [2A(R)] . Its kinact/KI was < 8330 M⁻¹ s⁻¹

The reported kinact/KI of the molecule CC#CC(=O)N[C@@H]1CCC[C@@H](c2c(F)c(F)c(C(N)=O)c3[nH]c(C)c(Cl)c23)C1 was < 8330 M⁻¹ s⁻¹

Reported kinact/KI ( CC#CC(=O)N[C@@H]1CCC=C(c2c(F)cc(C(N)=O)c3[nH]c(C)c(Cl)c23)C1 [1A(R)] ) = < 8330 M⁻¹ s⁻¹
